meta.source: ChEMBL document CHEMBL3351289

biological target: Ephrin type-A receptor 2 (Homo sapiens, UniProt P29317)
Sequence (P29317 whole entry): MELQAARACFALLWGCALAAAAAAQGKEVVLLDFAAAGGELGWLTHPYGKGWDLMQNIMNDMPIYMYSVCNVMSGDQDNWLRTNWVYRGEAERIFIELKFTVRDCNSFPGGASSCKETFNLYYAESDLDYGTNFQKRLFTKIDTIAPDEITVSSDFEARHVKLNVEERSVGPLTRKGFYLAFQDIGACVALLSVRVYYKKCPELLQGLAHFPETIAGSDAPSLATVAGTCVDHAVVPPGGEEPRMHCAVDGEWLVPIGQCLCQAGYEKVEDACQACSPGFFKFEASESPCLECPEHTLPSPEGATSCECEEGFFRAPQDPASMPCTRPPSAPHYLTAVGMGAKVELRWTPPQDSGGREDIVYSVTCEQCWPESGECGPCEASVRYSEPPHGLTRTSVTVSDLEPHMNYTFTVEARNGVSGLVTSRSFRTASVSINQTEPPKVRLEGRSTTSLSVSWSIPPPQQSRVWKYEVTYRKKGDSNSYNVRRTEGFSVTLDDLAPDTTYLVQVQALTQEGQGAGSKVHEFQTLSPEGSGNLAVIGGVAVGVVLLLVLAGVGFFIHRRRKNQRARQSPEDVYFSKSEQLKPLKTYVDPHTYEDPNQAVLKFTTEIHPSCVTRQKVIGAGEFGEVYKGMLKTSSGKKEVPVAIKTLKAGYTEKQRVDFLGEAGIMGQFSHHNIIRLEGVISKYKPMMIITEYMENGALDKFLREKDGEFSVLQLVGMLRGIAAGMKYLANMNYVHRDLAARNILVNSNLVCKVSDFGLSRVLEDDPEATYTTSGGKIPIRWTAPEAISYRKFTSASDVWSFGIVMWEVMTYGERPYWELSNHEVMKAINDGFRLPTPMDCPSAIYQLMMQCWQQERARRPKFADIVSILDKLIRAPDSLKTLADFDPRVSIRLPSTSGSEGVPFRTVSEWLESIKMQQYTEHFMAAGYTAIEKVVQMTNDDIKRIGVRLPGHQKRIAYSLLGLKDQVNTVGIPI
Readout Type: pIC50
Keep in mind that pIC50 stands for -log10 of concentration in molar terms.

Given the entry COc1cc2c(Nc3ccc(Cl)cc3F)ncnc2cc1OCC1CNCCO1 (stereo unspecified) , what pIC50 was observed with Ephrin type-A receptor 2 (Homo sapiens, UniProt P29317)?
6.80
